// reported inhibition per item
biological target: 5-hydroxytryptamine receptor 1A (Homo sapiens); assay: Displacement of [3H]-8-OH-DPAT from human 5HT1A receptor expressed in HEK293 cells at 10 uM; format: cell-based
property-name: inhibition (%)

- smiles-string: "COc1cc2c(c(OC)c1)CN1CCc3cc(OC)c(OC)cc3[C@@H]1C2"
  target-or-system: "5-hydroxytryptamine receptor 1A (Homo sapiens)"
  readout-unit: "%"
  meas-value: 66.9
- smiles-string: "COc1cc2c(c(OC)c1OC)[C@@H]1Cc3cc4c(cc3CN1CC2)OCO4"
  target-or-system: "5-hydroxytryptamine receptor 1A (Homo sapiens)"
  readout-unit: "%"
  meas-value: 70.3
- smiles-string: "COc1ccc2c(c1)C[C@H]1c3cc4c(cc3CCN1C2)OCO4"
  target-or-system: "5-hydroxytryptamine receptor 1A (Homo sapiens)"
  readout-unit: "%"
  meas-value: 5.48
- smiles-string: "COc1ccc2c(c1)C[C@H]1c3cc(O)c(OC)cc3CCN1C2"
  target-or-system: "5-hydroxytryptamine receptor 1A (Homo sapiens)"
  readout-unit: "%"
  meas-value: 65.6
- smiles-string: "COc1cc2c(cc1O)[C@@H]1Cc3c(CO)c(OC)cc(OC)c3CN1CC2"
  target-or-system: "5-hydroxytryptamine receptor 1A (Homo sapiens)"
  readout-unit: "%"
  meas-value: 80.9
- smiles-string: "COc1cc2c(cc1O)[C@@H]1Cc3cc(C)cc(C)c3CN1CC2"
  target-or-system: "5-hydroxytryptamine receptor 1A (Homo sapiens)"
  readout-unit: "%"
  meas-value: 74.5
- smiles-string: "COc1ccc(OC)c2c1C[C@H]1c3c(OC)cc(OC)c(CO)c3CCN1C2"
  target-or-system: "5-hydroxytryptamine receptor 1A (Homo sapiens)"
  readout-unit: "%"
  meas-value: 33.1
- smiles-string: "COc1ccc2c(c1)C[C@H]1c3c(OC)cc(OC)c(CO)c3CCN1C2"
  target-or-system: "5-hydroxytryptamine receptor 1A (Homo sapiens)"
  readout-unit: "%"
  meas-value: 1.34
- smiles-string: "COc1cc2c(c(OC)c1)CN1CCc3cc(OC)c(O)c(OC)c3[C@@H]1C2"
  target-or-system: "5-hydroxytryptamine receptor 1A (Homo sapiens)"
  readout-unit: "%"
  meas-value: 44.9
- smiles-string: "COc1cc2c(c(OC)c1)CN1CCc3cc(OC)c(OC)c(OC)c3[C@@H]1C2"
  target-or-system: "5-hydroxytryptamine receptor 1A (Homo sapiens)"
  readout-unit: "%"
  meas-value: 66.9
- smiles-string: "COc1cc2c(cc1O)[C@@H]1Cc3ccc(O)c(OC)c3CN1CC2"
  target-or-system: "5-hydroxytryptamine receptor 1A (Homo sapiens)"
  readout-unit: "%"
  meas-value: 89.3
- smiles-string: "COc1cc2c(c(OC)c1)CN1CCc3cc(OC)c(O)cc3[C@@H]1C2"
  target-or-system: "5-hydroxytryptamine receptor 1A (Homo sapiens)"
  readout-unit: "%"
  meas-value: 56.9

====

molecular target: D(2) dopamine receptor (Homo sapiens, UniProt P14416); test: Displacement of [3H]Spiprone from human dopamine D2 receptor expressed in HEK293 cells at 10 uM; assay type: cell-based
Sequence (P14416 whole entry): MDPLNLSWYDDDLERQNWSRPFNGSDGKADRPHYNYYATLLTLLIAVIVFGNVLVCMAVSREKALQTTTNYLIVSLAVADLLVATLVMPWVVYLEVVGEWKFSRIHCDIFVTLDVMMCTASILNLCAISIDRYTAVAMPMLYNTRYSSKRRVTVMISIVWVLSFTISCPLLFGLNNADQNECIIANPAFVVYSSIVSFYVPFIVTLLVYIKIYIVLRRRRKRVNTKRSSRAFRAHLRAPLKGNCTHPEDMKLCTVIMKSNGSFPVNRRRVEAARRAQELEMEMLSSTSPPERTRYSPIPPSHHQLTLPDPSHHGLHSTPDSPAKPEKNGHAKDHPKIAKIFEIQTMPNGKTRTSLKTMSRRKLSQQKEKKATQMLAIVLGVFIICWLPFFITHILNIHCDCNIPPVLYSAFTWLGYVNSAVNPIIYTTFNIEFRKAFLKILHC

- smiles-string: "COc1cc2c(c(OC)c1OC)[C@@H]1Cc3cc4c(cc3CN1CC2)OCO4"
  inhibition, %: 70.7
- smiles-string: "COc1cc2c(c(OC)c1)CN1CCc3cc(OC)c(OC)c(OC)c3[C@@H]1C2"
  inhibition, %: 51.7
- smiles-string: "COc1cc2c(c(OC)c1)CN1CCc3cc(OC)c(OCc4ccccc4)c(OC)c3[C@@H]1C2"
  inhibition, %: 54.2
- smiles-string: "COc1cc2c(c(OC)c1)CN1CCc3cc(OC)c(O)cc3[C@@H]1C2"
  inhibition, %: 83.3
- smiles-string: "COc1cc2c(c(OC)c1)CN1CCc3cc(OC)c(OC)cc3[C@@H]1C2"
  inhibition, %: 3.48
- smiles-string: "COc1ccc2c(c1)C[C@H]1c3cc(OC)c(OC)cc3CCN1C2"
  inhibition, %: 10.2
- smiles-string: "COc1cc(OC)c2c(c1CO)C[C@H]1c3cc4c(cc3CCN1C2)OCO4"
  inhibition, %: 41.8
- smiles-string: "COc1ccc2c(c1)C[C@H]1c3cc4c(cc3CCN1C2)OCO4"
  inhibition, %: 22.7

====

biological target: UniProtKB P28223; experiment: Displacement of [3H]Ketanserin from human 5HT2A receptor expressed in HEK293 cells at 10 uM; format: cell-based
Sequence (P28223 whole entry): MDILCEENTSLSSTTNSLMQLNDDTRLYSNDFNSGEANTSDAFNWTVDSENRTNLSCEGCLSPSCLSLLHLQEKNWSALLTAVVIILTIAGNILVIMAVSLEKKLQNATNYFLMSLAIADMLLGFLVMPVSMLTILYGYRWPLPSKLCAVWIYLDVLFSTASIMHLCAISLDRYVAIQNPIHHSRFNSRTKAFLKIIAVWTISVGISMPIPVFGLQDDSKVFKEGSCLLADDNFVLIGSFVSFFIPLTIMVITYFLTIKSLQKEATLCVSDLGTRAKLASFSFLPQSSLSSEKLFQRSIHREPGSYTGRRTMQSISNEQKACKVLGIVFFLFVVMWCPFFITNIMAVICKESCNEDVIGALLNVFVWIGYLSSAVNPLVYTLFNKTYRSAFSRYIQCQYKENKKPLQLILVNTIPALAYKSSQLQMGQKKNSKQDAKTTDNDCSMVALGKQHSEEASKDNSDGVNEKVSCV

- compound: "COc1cc2c(c(OC)c1)CN1CCc3cc(OC)c(OC)c(OC)c3[C@@H]1C2"
  inhibition (%): 48.8
- compound: "COc1cc2c(cc1OC)C1Cc3cc(C)cc(C)c3CN1CC2 (racemic)"
  inhibition (%): 19.9
- compound: "COc1cc2c(c(OC)c1OC)[C@@H]1Cc3cc4c(cc3CN1CC2)OCO4"
  inhibition (%): 72.7
- compound: "COc1cc(OC)c2c(c1CO)C[C@H]1c3cc4c(cc3CCN1C2)OCO4"
  inhibition (%): 56.2
- compound: "COc1cc2c(cc1O)[C@@H]1Cc3c(CO)c(OC)cc(OC)c3CN1CC2"
  inhibition (%): 18.4
- compound: "COc1ccc2c(c1)C[C@H]1c3cc4c(cc3CCN1C2)OCO4"
  inhibition (%): 20.8
- compound: "COc1cc2c(cc1OC)[C@@H]1Cc3cc(C)cc(C)c3CN1CC2"
  inhibition (%): 36.5
- compound: "COc1ccc2c(c1)C[C@H]1c3cc(OC)c(OC)cc3CCN1C2"
  inhibition (%): 33.5
- compound: "COc1cc(OC)c2c(c1CO)CCN1Cc3cc4c(cc3C[C@@H]21)OCO4"
  inhibition (%): 16.9
- compound: "COc1cc2c(c(OC)c1)CN1CCc3cc(OC)c(OC)cc3[C@@H]1C2"
  inhibition (%): 17.2
- compound: "COc1cc2c(cc1OC)[C@@H]1Cc3c(CO)c(OC)cc(OC)c3CN1CC2"
  inhibition (%): 24.1
- compound: "COc1ccc2c(c1)C[C@H]1c3c(OC)cc(OC)c(CO)c3CCN1C2"
  inhibition (%): 21.4
